# Assay: total protein half-life in vivo (active degradation + dilution); higher = more stable protein
# Run conditions: wild type E. coli NCM3722; growth: N-lim chemostat; doubling time 12 h
I'd appreciate it if you could supply total protein half-life in vivo values for the items below.
Reply with the number, then its unit.

MQKQAELYRGKAKTVYSTENPDLLVLEFRNDTSAGDGARIEQFDRKGMVNNKFNYFIMSKLAEAGIPTQMERLLSDTECLVKKLDMVPVECVVRNRAAGSLVKRLGIEEGIELNPPLFDLFLKNDAMHDPMVNESYCETFGWVSKENLARMKELTYKANDVLKKLFDDAGLILVDFKLEFGLYKGEVVLGDEFSPDGSRLWDKETLEKMDKDRFRQSLGGLIEAYEAVARRLGVQLD [P0A7D7] yielded total protein half-life in vivo of 8 h

MKKKTTLSEEDQALFRQLMAGTRKIKQDTIVHRPQRKKISEVPVKRLIQEQADASHYFSDEFQPLLNTEGPVKYVRPDVSHFEAKKLRRGDYSPELFLDLHGLTQLQAKQELGALIAACRREHVFCACVMHGHGKHILKQQTPLWLAQHPHVMAFHQAPKEYGGDAALLVLIEVEEWLPPELP [P0A8B2] yielded total protein half-life in vivo of 3.87 h

MDVRQSIHSAHAKTLDTQGLRNEFLVEKVFVADEYTMVYSHIDRIIVGGIMPITKTVSVGGEVGKQLGVSYFLERRELGVINIGGAGTITVDGQCYEIGHRDALYVGKGAKEVVFASIDTGTPAKFYYNCAPAHTTYPTKKVTPDEVSPVTLGDNLTSNRRTINKYFVPDVLETCQLSMGLTELAPGNLWNTMPCHTHERRMEVYFYFNMDDDACVFHMMGQPQETRHIVMHNEQAVISPSWSIHSGVGTKAYTFIWGMVGENQVFDDMDHVAVKDLR yielded total protein half-life in vivo of 5.64 h

----------
I'd appreciate it if you could supply total protein half-life in vivo values for the items below.
# Assay: total protein half-life in vivo (active degradation + dilution); higher = more stable protein
# Run conditions: wild type E. coli NCM3722; growth: N-lim chemostat; doubling time 12 h
Respond numerically; units are h and should not be typed.

MSDISKASLPKAIFLMGPTASGKTALAIELRKILPVELISVDSALIYKGMDIGTAKPNAEELLAAPHRLLDIRDPSQAYSAADFRRDALAEMADITAAGRIPLLVGGTMLYFKALLEGLSPLPSADPEVRARIEQQAAEQGWESLHRQLQEVDPVAAARIHPNDPQRLSRALEVFFISGKTLTELTQTSGDALPYQVHQFAIAPASRELLHQRIEQRFHQMLASGFEAEVRALFARGDLHTDLPSIRCVGYRQMWSYLEGEISYDEMVYRGVCATRQLAKRQITWLRGWEGVHWLDSEKPEQARDEVLQVVGAIAG yielded total protein half-life in vivo of 6.84

MEQRHITGKSHWYHETQSSTTEYDVLPLVPEAAKVSDPFLLDVILEKETLAPFLSWLDPARVLAVDLFPDQLTVTRSQTFTAYERLSTALTVAQVCGVQRLCNYYSARLTPLPGPDSTRESNHRLAQITQYARQLASSPSIIDNRSRQHLNDVGLTAWDCVIISQIIGFIGFQARTIATFQAYLGHPVRWLPGLEIQNYADASLFADESLRWRSSYEVEKLPEEHTKSSTAELCQLAEILSLHPISLSLLEKLLNSTRGNTQPDNQLAALLCARINGSPACFATCMDSSNEYKKISTLMRKGENEINQWADRHSVERATVQAIQWLTRAPDRFSAAQFSPLLEHEKSSTQIINLLVWSGLCGWINRLKIALGETY yielded total protein half-life in vivo of 6.39
